Attribution: paper PMC10360211

Target protein (sequence): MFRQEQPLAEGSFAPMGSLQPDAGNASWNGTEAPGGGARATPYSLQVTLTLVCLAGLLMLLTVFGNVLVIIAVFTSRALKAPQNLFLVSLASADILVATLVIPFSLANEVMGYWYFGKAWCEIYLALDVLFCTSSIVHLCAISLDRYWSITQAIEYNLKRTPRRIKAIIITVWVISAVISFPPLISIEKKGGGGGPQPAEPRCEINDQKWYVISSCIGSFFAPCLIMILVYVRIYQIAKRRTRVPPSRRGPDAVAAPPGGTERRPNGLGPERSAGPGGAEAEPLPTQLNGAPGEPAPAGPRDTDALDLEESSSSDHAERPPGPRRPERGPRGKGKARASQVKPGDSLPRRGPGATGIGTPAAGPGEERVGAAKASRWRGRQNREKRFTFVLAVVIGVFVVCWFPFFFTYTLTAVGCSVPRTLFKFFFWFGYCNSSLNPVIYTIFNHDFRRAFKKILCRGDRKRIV
measurement-label: pKd
Reminder that pKd is minus the log10 of a molar concentration.

For COC1(C2=NCCN2)COc2ccccc2O1 (stereo not shown) [[^3H]RX82,1002] the compound record lists pKd as 9.27
